Test system: Vero E6 infected with SARS-CoV-2
Assay: inhibition of SARS-CoV-2 cytopathic effect; higher = more antiviral protection, active = above 15
Conditions: 1 nM; 48 h
readout_label: inhibition of SARS-CoV-2 cytopathic effect (%)

[
  {
    "compound": "c1cc(OCCN2CCCCC2)cc(-c2n[nH]c3ccc(-c4nnc[nH]4)cc23)c1",
    "result_value": -0.48
  },
  {
    "compound": "NS(=O)(=O)NCCNc1nonc1/C(=N/O)Nc1ccc(F)c(Br)c1",
    "result_value": -1.72
  },
  {
    "compound": "CCS(=O)(=O)N1CC(CC#N)(n2cc(-c3ncnc4[nH]ccc34)cn2)C1",
    "result_value": 3.34
  },
  {
    "compound": "O=C(O)C[C@H]1CC[C@H](c2ccc(-c3ccc(Nc4ccc(C(F)(F)F)nc4)cn3)cc2)CC1",
    "result_value": -1.27
  },
  {
    "compound": "Cc1cn2c(N)c(Cl)cc(C(=O)NCC3CCN(CC(C)C)CC3)c2n1",
    "result_value": 2.35
  },
  {
    "compound": "CS(=O)(=O)c1ccc(C2=C(c3ccccc3)C(=O)OC2)cc1",
    "result_value": 1.64
  },
  {
    "compound": "COc1cc(Oc2ccnc3cc(OC)c(OC)cc23)ccc1NC(=O)NC(C)c1nccs1 (stereo not given)",
    "result_value": -1.6
  },
  {
    "compound": "CCOC(=O)c1ccc(O)cc1",
    "result_value": 0.82
  },
  {
    "compound": "CC(=O)Nc1ccc(OCC(O)CNC(C)C)cc1 (stereo not given)",
    "result_value": 0.44
  },
  {
    "compound": "CNC(=O)c1ccc(C)c(-n2c(C)cc(OCc3ccc(F)cc3F)c(Br)c2=O)c1",
    "result_value": -1.52
  },
  {
    "compound": "C#C[C@]1(O)CC[C@H]2[C@@H]3CCC4=Cc5oncc5C[C@]4(C)[C@H]3CC[C@@]21C",
    "result_value": 2.48
  },
  {
    "compound": "N#Cc1c(Oc2ccc(F)c(NC(=O)Cc3cccc(C(F)(F)F)c3)c2)ccc2nc(NC(=O)C3CC3)sc12",
    "result_value": 0.58
  },
  {
    "compound": "CCC(=O)NC[C@@H]1C[C@H]1c1cccc2c1CCO2",
    "result_value": -0.84
  },
  {
    "compound": "COc1ccc(CCNCc2ccc(OCc3ccc(Cl)nc3)c(OC)c2)cc1OC",
    "result_value": -1.43
  },
  {
    "compound": "c1ccc(C(O[C@@H]2CCCN(CCc3ccc4c(c3)OCO4)C2)c2ccccc2)cc1",
    "result_value": 0.36
  },
  {
    "compound": "O=C(Nc1ccc(CN2CCOCC2)cc1)c1ccc(-c2cccc(Cl)c2)o1",
    "result_value": 0.42
  },
  {
    "compound": "CCOC(=O)[C@@H](C)Oc1ccc(Oc2nc3ccc(Cl)cc3o2)cc1",
    "result_value": 0.1
  },
  {
    "compound": "C=C1C(=O)O[C@@H]2C[C@@]3(C)CCC[C@H](C)C3=C[C@H]12",
    "result_value": -2.07
  },
  {
    "compound": "CC(C)(C)CC(C)(C)c1cc(Cc2cc(C(C)(C)CC(C)(C)C)cc(-n3nc4ccccc4n3)c2O)c(O)c(-n2nc3ccccc3n2)c1",
    "result_value": 0.77
  },
  {
    "compound": "COc1ccc(C(=O)NCc2ccc(OCCN(C)C)cc2)cc1OC [itopride]",
    "result_value": 0.25
  },
  {
    "compound": "N#C/C(=C1/SC[C@@H](c2ccc(Cl)cc2Cl)S1)n1ccnc1",
    "result_value": 1
  },
  {
    "compound": "CC#CC(=O)N1CCC[C@H]1c1nc(-c2ccc(C(=O)Nc3ccccn3)cc2)c2c(N)nccn12",
    "result_value": 2.14
  },
  {
    "compound": "Cc1cc(C(C#N)c2ccc(Cl)cc2)c(Cl)cc1NC(=O)c1cc(I)cc(I)c1O (stereo not given)",
    "result_value": 0.26
  },
  {
    "compound": "Clc1ccc(CO/N=C(\\Cn2ccnc2)c2ccc(Cl)cc2Cl)c(Cl)c1",
    "result_value": -0.54
  },
  {
    "compound": "c1nc2c(NC3CCCCC3)nc(Nc3ccc(N4CCOCC4)cc3)nc2[nH]1",
    "result_value": 3.13
  },
  {
    "compound": "Cc1ccc2c(=O)c3cccc(CC(=O)O)c3oc2c1C",
    "result_value": 4.48
  },
  {
    "compound": "CC1(C)S[C@@H]2[C@H](NC(=O)[C@H](N)c3ccc(O)cc3)C(=O)N2[C@H]1C(=O)O",
    "result_value": -2.41
  },
  {
    "compound": "CC(=O)O[C@H]1C[C@@H]2CC[C@@H]3[C@H](CC[C@@]4(C)[C@H]3C[C@H]([N+]3(C)CCCCC3)[C@@H]4OC(C)=O)[C@@]2(C)C[C@@H]1[N+]1(C)CCCCC1",
    "result_value": -2.97
  },
  {
    "compound": "CCC(=O)N[C@@H]1Cc2ccccc2[C@H](c2ccccc2)C1",
    "result_value": 1.13
  },
  {
    "compound": "CCCCCCCCOc1ccccc1C(=O)Nc1ccc(C(=O)OCC[N+](C)(CC)CC)cc1",
    "result_value": 2.76
  },
  {
    "compound": "CC1(C)O[C@@H]2C[C@H]3[C@@H]4CCC5=CC(=O)C=C[C@]5(C)[C@@]4(F)[C@@H](O)C[C@]3(C)[C@]2(C(=O)CO)O1",
    "result_value": 0.1
  },
  {
    "compound": "CC(N)Cc1ccc(O)cc1 (stereo not given) [hydroxyamphetamine]",
    "result_value": 1.55
  },
  {
    "compound": "C=C1/C(=C\\C=C2/CCC[C@]3(C)[C@@H]([C@H](C)/C=C/[C@H](C)C(C)C)CC[C@@H]23)C[C@@H](O)C[C@@H]1O",
    "result_value": 0.83
  },
  {
    "compound": "CCNC(=O)CC[C@H](N)C(=O)O",
    "result_value": -2.94
  },
  {
    "compound": "CN1C(=O)N(c2cc(Cl)cc(Cl)c2)C(=O)[C@]12CN(Cc1cc(C(=O)O)cs1)C[C@H]2c1ccc(C#N)cc1",
    "result_value": -1.94
  }
]
